Measured EC50, listed per entry.
System: MCF7 (breast adenocarcinoma—Rb-positive)
Test: Cellular proliferation assay (CellTiter-Glo), MCF7
Type: cell-based
Details: Homo sapiens, MCF7, 144 h, six days
Please append the unit to your numeric answer.

COMPOUND | STUDY TARGET | MEASUREMENT NAME | RESULT
CN1CCN(C(=O)c2ccc(Cc3ncc4cc5n(c4n3)C3(CCCC3)CNC5=O)nc2)CC1 | MCF7 (breast adenocarcinoma—Rb-positive) | EC50 | 123 nM

Now let's try a different one.
Problem: Reported EC50, compound CC1CN(c2ccc(Nc3ncc4cc5n(c4n3)C3(CCCCC3)CNC5=O)nc2)C[C@@H](C)N1CC1CC1 (some centres unmarked) : ____
Solution: 120 nM

====

Measured IC50, listed per entry.
Biological target: CDK2/CyclinE (Homo sapiens, UniProt P24941)
Construct: Nanosyn (Santa Clara, Calif.) ran the assay as a service
Test: CDK2/cyclinE kinase assay (Nanosyn, Caliper microfluidic)
Details: Table 2; ATP 100 μM; read-out: CDK2/CycE IC50
Dear colleague, please return just the value in µM, with no unit written.

Recorded IC50, per entry:
COMPOUND | IC50, µM
CC1CN(c2ccc(Nc3ncc4cc5n(c4n3)C3(CCCC3)CNC5=O)nc2)CCN1CCC(C)(C)C (stereo not drawn) [PPP] | 16.5
CC1CN(c2ccc(Nc3ncc4cc5n(c4n3)C3(CCCCC3)CNC5=O)nc2)C[C@@H](C)N1CC1CC1 (stereo partly drawn) [OO] | 3.98

Now let's try a different one.
Problem: Reported IC50, compound CN1CCN(C(=O)c2ccc(Cc3ncc4cc5n(c4n3)C3(CCCC3)CNC5=O)nc2)CC1 [BBB] : ____
Solution: 0.187

====

Test system: A2058 (human metastatic melanoma cells—Rb-negative)
Experiment: Cellular proliferation assay (CellTiter-Glo), A2058
Assay type: cell-based
Settings: A2058, 144 h, six days
pEC50: −log10 of the molar value.
Measured pEC50, listed per entry.

Problem: Reported pEC50, molecule CC1CN(c2ccc(Nc3ncc4cc5n(c4n3)C3(CCCCC3)CNC5=O)nc2)C[C@@H](C)N1CC1CC1 (some centres unmarked) : ____
Solution: < 5.52

Problem: Further, for `CN1CCN(C(=O)c2ccc(Cc3ncc4cc5n(c4n3)C3(CCCC3)CNC5=O)nc2)CC1` ?
Solution: < 5.52

====

Molecular target: CDK4/CyclinD1 (Homo sapiens)
Experiment: CDK4/cyclinD1 kinase assay (Nanosyn, Caliper microfluidic)
Type: biochemical
Settings: Table 2; ATP at Km (200 μM); read-out: CDK4/CycD1 IC50
MEASUREMENT NAME: pIC50
Scale explanation: pIC50 corresponds to minus log10 of a concentration expressed in moles per litre.

Recorded pIC50, per entry:
COMPOUND | pIC50
CC1CN(c2ccc(Nc3ncc4cc5n(c4n3)C3(CCCCC3)CNC5=O)nc2)C[C@@H](C)N1CC1CC1 (stereo partly shown) | 8.05
CCN1[C@H](C)CN(c2ccc(Nc3ncc4cc5n(c4n3)C3(CCCCC3)CNC5=O)nc2)C[C@@H]1C | 8.92
CC(C)N1CCN(c2ccc(Nc3ncc4cc5n(c4n3)C3(CCCCC3)CNC5=O)nc2)C[C@H]1C | 8.24

Now let's try a different one.
Problem: Reported pIC50, compound `CCOCCN1CCN(c2ccc(Nc3ncc4cc5n(c4n3)C3(CCCC3)CNC5=O)nc2)CC1` : ____
Solution: 8.49

====

Target: CDK2/CyclinA (Homo sapiens, UniProt P24941)
Construct: Nanosyn (Santa Clara, Calif.) ran the assay as a service
Assay: CDK2/CycA kinase assay (Nanosyn, Caliper microfluidic)
Conditions: Table 2; ATP 50 μM
Measured pIC50, listed per entry.
Scale explanation: pIC50 corresponds to minus log10 of a concentration expressed in moles per litre.

Recorded pIC50, per entry:
COMPOUND | STUDY TARGET | MEASUREMENT NAME | READOUT NUMBER
CC1CN(c2ccc(Nc3ncc4cc5n(c4n3)C3(CCCC3)CNC5=O)nc2)CCN1CCC(C)(C)C (stereo not drawn) | CDK2/CyclinA (Homo sapiens, UniProt P24941) | pIC50 | 5.58
CN1CCN(C(=O)c2ccc(Cc3ncc4cc5n(c4n3)C3(CCCC3)CNC5=O)nc2)CC1 | CDK2/CyclinA (Homo sapiens, UniProt P24941) | pIC50 | 7.07

Now let's try a different one.
Problem: Reported pIC50, compound CC1CN(c2ccc(Nc3ncc4cc5n(c4n3)C3(CCCCC3)CNC5=O)nc2)C[C@@H](C)N1CC1CC1 (stereo partly drawn) : ____
Solution: 6.24

====

Target: CDK4/CyclinD1 (Homo sapiens, UniProt P11802)
Sequence (P11802 whole entry): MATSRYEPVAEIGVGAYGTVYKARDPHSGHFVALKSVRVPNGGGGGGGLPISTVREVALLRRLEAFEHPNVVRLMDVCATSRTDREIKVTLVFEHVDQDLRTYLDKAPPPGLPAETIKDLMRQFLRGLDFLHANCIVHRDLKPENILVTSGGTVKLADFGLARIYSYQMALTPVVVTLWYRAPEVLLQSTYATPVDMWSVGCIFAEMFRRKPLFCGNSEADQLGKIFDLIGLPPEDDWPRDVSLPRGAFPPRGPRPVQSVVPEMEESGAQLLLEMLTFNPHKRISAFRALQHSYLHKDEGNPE
Sequence (P24385 whole entry partner): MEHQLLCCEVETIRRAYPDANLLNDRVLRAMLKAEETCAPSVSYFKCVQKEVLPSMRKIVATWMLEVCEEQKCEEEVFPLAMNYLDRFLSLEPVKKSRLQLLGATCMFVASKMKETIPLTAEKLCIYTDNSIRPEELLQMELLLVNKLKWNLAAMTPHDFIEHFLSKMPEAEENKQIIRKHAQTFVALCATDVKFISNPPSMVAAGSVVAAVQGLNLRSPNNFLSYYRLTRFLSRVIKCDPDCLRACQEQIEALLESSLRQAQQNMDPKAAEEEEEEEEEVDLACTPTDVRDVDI
Test: CDK4/cyclinD1 kinase assay (Nanosyn, Caliper microfluidic)
Assay type: biochemical
Details: Table 2; ATP at Km (200 μM); read-out: CDK4/CycD1 IC50
MEASUREMENT NAME: pIC50
Scale explanation: pIC50 corresponds to minus log10 of a concentration expressed in moles per litre.

Problem: Record lookup: for CDK4/CyclinD1 (Homo sapiens, UniProt P11802), what pIC50 belongs to `CC(C)[C@H]1CNC(=O)c2cc3cnc(Nc4ccc(N5CCNCC5)cn4)nc3n21` ?
Solution: 7.74

Problem: Further, for `CN1CCN(C(=O)c2ccc(Cc3ncc4cc5n(c4n3)C3(CCCC3)CNC5=O)nc2)CC1` ?
Solution: 8.55

Problem: Further, for `C[C@@H](O)CN1CCN(c2ccc(Nc3ncc4cc5n(c4n3)C3(CCCCC3)CNC5=O)nc2)CC1` ?
Solution: 8.77

Problem: Further, for `C[C@H]1CN(c2ccc(Nc3ncc4cc5n(c4n3)C3(CCCCC3)CNC5=O)nc2)CCN1CCC(C)(C)C` ?
Solution: 8.64

Problem: Further, for CC1CN(c2ccc(Nc3ncc4cc5n(c4n3)C3(CCCC3)CNC5=O)nc2)CCN1CCC(C)(C)C (stereo not drawn) ?
Solution: 9.10

Problem: Further, for `C[C@@H]1CN(c2ccc(Nc3ncc4cc5n(c4n3)C3(CCCCC3)CNC5=O)nc2)CCN1C[C@@H](C)O` ?
Solution: 9.15

====

Biological target: CDK4/CyclinD1 (Homo sapiens)
Test: CDK4/cyclinD1 kinase assay (Nanosyn, Caliper microfluidic)
Type: biochemical
Conditions: Table 3; read-out: CDK4/CycD1 IC50
Experimental: Selected compounds disclosed herein were tested in CDK4/cyclinD1, CDK2/CycA and CDK2/cyclinE kinase assays by Nanosyn (Santa Clara, Calif.) to determine their inhibitory effect on these CDKs. The assays were performed using microfluidic kinase detection technology (Caliper Assay Platform). The compounds were tested in 12-point dose-response format in singlicate at Km for ATP. […]
MEASUREMENT NAME: IC50 (nM)
Dear colleague, please return just the value in nM, with no unit written.

Problem: Record lookup: for CDK4/CyclinD1 (Homo sapiens), what IC50 belongs to CC(C)N1CCN(c2ccc(Nc3ncc4cc5n(c4n3)C3(CCCCC3)CNC5=O)nc2)CC1 [Compound GG] ?
Solution: 1.06

====

Biological target: CDK4/CyclinD1 (Homo sapiens, UniProt P11802)
Assay: CDK4/cyclinD1 kinase assay (Nanosyn, Caliper microfluidic)
Type: biochemical
Conditions: read-out: CDK4/CycD1 IC50
MEASUREMENT NAME: pIC50
Scale explanation: pIC50 corresponds to minus log10 of a concentration expressed in moles per litre.

Problem: Reported pIC50, molecule `CC(C)N1CCN(c2ccc(Nc3ncc4cc5n(c4n3)C3(CCCCC3)CNC5=O)nc2)CC1` : ____
Solution: 9.00
